Tested on: Mus musculus
method: Biodistribution was measured in mice skin 60 minutes after intravenous injection of [125I]-labeled styrylbenzene.
Assay type: ADME, organism-based, Zone of skin
settings: in vivo, 1 h
recorded metric: Dose/organ (%)
One number for each entry, in %.

Examples with their reported Dose/organ follow.
>>> print(df.to_string())
                                smiles_code  observed
0          CN(C)c1ccc(-c2nc3ccc(I)cc3s2)cc1      12.8
1  COc1ccc(/C=C/c2ccc(/C=C/c3ccc(OC)c(C(=O)O)c3)c(I)c2)cc1C(=O)O      1.02

Required: Dose/organ, one value per compound below.
1. CN1CCN(c2ccc(-c3nc4ccc(I)cc4s3)cc2)CC1
2. O=C(O)c1cc(/C=C/c2ccc(/C=C/c3ccc(O)c(C(=O)O)c3)c(I)c2)ccc1O

Output:
[5.63, 3.66]
